- Test system: CHO cells
- method_notes: in vitro
- Type: cell-based
- conditions_used: 48 h at 37° C.; 1 mM AG 24 h prior to drug addition; read-out: CHO IC50 (μM) w/AG
- From the text: CHO cells were chosen along with a mutant cell line (CHO-MG*) to comment on how the synthetic conjugates gain access to the cells.^2c-e, 6 As discussed earlier, the CHO-MG cell line is polyamine-transport deficient and represents a model for alternative modes of entry (other than PTS) including passive diffusion or use of another transporter. […]
assay_readout: log10 IC50 (log10 of the value in µM)

[
  {
    "compound": "NCCCCNCCCCNCc1c2ccccc2c(CNCCCCNCCCCN)c2ccccc12 [Compound 6a]",
    "assay_system": "CHO cells",
    "recorded_number": -1.55
  },
  {
    "compound": "Cl.NCCCCNCCCCNCc1ccc(CNCCCCNCCCCN)cc1 [Compound 8a]",
    "assay_system": "CHO cells",
    "recorded_number": -1.57
  },
  {
    "compound": "Cl.NCCCCNCCCCNCc1c2ccccc2cc2ccccc12 [Compound 5a, reference compound]",
    "assay_system": "CHO cells",
    "recorded_number": -0.49
  },
  {
    "compound": "NCCCCNCCCCNCc1ccc(CNCCCCNCCCCN)c2ccccc12 [Compound 7a]",
    "assay_system": "CHO cells",
    "recorded_number": -1.66
  },
  {
    "compound": "CNCCCCNCCCCNCc1c2ccccc2cc2ccccc12 [Compound 5b]",
    "assay_system": "CHO cells",
    "recorded_number": 0.45
  }
]

* * *

- Tested on: CHO-MG* cells
- method_notes: Cytotoxicity IC50 determination (MTS) in polyamine-transport-deficient CHO-MG* cells
- Assay type: cell-based, Chinese hamster
- conditions_used: 48 h at 37° C.; without AG; read-out: CHO-MG* IC50 (μM) w/o AG

[
  {
    "compound": "NCCCCNCCCCNCc1ccc(CNCCCCNCCCCN)c2ccccc12",
    "IC50, µM": 52.1
  },
  {
    "compound": "Cl.NCCCCNCCCCNCc1ccc(CNCCCCNCCCCN)cc1",
    "IC50, µM": 56.5
  },
  {
    "compound": "Cl.NCCCCNCCCCNCc1c2ccccc2cc2ccccc12 [Compound 5a, reference compound]",
    "IC50, µM": 2.2
  },
  {
    "compound": "CNCCCCNCCCCNCc1c2ccccc2cc2ccccc12",
    "IC50, µM": 11.3
  },
  {
    "compound": "NCCCCNCCCCNCc1c2ccccc2c(CNCCCCNCCCCN)c2ccccc12",
    "IC50, µM": 8.4
  }
]

* * *

- System: CHO cells
- method_notes: cells
- Type: cell-based
- conditions_used: Cricetulus griseus, CHO; Table 4; 48 h at 37° C.; 1 mM AG 24 h prior to drug addition; read-out: CHO IC50

[
  {
    "molecule": "NCCCCNCCCCNCc1cc(CNCCCCNCCCCN)cc(CNCCCCNCCCCN)c1 [Compound 32, reference compound]",
    "unit_abbreviation": "nM",
    "limit_sign": ">",
    "IC50": 100000
  },
  {
    "molecule": "NCCCCNCCCCNCc1cccc(CNCCCCNCCCCN)c1 [Compound 34a]",
    "unit_abbreviation": "nM",
    "limit_sign": "=",
    "IC50": 28
  },
  {
    "molecule": "NCCCCNCCCCNCCCCNCc1cccc(CNCCCCNCCCCNCCCCN)c1 [Compound 34b]",
    "unit_abbreviation": "nM",
    "limit_sign": "=",
    "IC50": 40
  }
]
